Below, each of the compounds is paired with its reported IC50 value.
- Test system: ADR5000 cell line
- Assay Summary: Cytotoxicity against human CEM/ADR5000 cells assessed as reduction in cell viability after 72 hrs by resazurin reduction assay
- Assay type: functional, cell-based
- Condition Set: ADR5000, 72 h
Report the figure in µM without appending any unit label.

INSERT INTO results (compound_structure_string, attribute_measured, observed_measurement) VALUES
  ('CC(=O)O[C@H]1C[C@H]2[C@@H]([C@H](OC(C)=O)C[C@@H]3CC(=O)CC[C@@]32C)[C@@H]2CC[C@H]([C@H](C)CCC(=O)OCCC[C@H]3O[C@@H]4O[C@@]5(C)CC[C@H]6[C@H](C)CC[C@@H]([C@H]3C)[C@@]46OO5)[C@@]12C', 'IC50', 7.16);

Exam item: Find the recorded IC50 belonging to `COC(=O)CC[C@@H](C)[C@H]1CC[C@H]2[C@@H]3[C@H](OC(C)=O)C[C@@H]4C[C@@H](NC(=O)CCC(=O)O[C@@H]5O[C@@H]6O[C@@]7(C)CC[C@H]8[C@H](C)CC[C@@H]([C@H]5C)[C@@]68OO7)CC[C@]4(C)[C@H]3C[C@H](OC(C)=O)[C@]12C` and report it.
Marked response: 0.779

---

- Test system: ADR5000 cell line
- Assay Summary: Cytotoxicity against human CEM/ADR5000 cells assessed as reduction in cell viability after 72 hrs by resazurin reduction assay
- Assay type: functional, cell-based
- Condition Set: ADR5000, 72 h
With a cut-off of 700 nM, any IC50 strictly below it is called Fulfilled; any IC50 meeting it or above is called Not fulfilled.

Solved entries:
INSERT INTO assay_data (compound_structure_string, assigned_class) VALUES
  ('COC(=O)CC[C@@H](C)[C@H]1CC[C@H]2[C@@H]3[C@H](OC(C)=O)C[C@@H]4C[C@H](NC(=O)CCC(=O)O[C@@H]5O[C@@H]6O[C@@]7(C)CC[C@H]8[C@H](C)CC[C@@H]([C@H]5C)[C@@]68OO7)CC[C@]4(C)[C@H]3C[C@H](OC(C)=O)[C@]12C', 'Fulfilled'),
  ('COC(=O)CC[C@@H](C)[C@H]1CC[C@H]2[C@@H]3[C@H](OC(C)=O)C[C@@H]4C[C@@H](NC(=O)C[C@H]5O[C@@H]6O[C@@]7(C)CC[C@H]8[C@H](C)CC[C@@H]([C@H]5C)[C@@]68OO7)CC[C@]4(C)[C@H]3C[C@H](OC(C)=O)[C@]12C', 'Fulfilled'),
  ('COC(=O)CC[C@@H](C)[C@H]1CC[C@H]2[C@@H]3[C@H](OC(C)=O)C[C@@H]4C[C@H](OC(=O)C[C@H]5O[C@@H]6O[C@@]7(C)CC[C@H]8[C@H](C)CC[C@@H]([C@H]5C)[C@@]68OO7)CC[C@]4(C)[C@H]3C[C@H](OC(C)=O)[C@]12C', 'Not fulfilled'),
  ('COC(=O)CC[C@@H](C)[C@H]1CC[C@H]2[C@@H]3[C@H](OC(C)=O)C[C@@H]4C[C@H](NC(=O)C[C@H]5O[C@@H]6O[C@@]7(C)CC[C@H]8[C@H](C)CC[C@@H]([C@H]5C)[C@@]68OO7)CC[C@]4(C)[C@H]3C[C@H](OC(C)=O)[C@]12C', 'Fulfilled'),
  ('COC(=O)CC[C@@H](C)[C@H]1CC[C@H]2[C@@H]3[C@H](OC(C)=O)C[C@@H]4C[C@H](OC(=O)CCC(=O)O[C@@H]5O[C@@H]6O[C@@]7(C)CC[C@H]8[C@H](C)CC[C@@H]([C@H]5C)[C@@]68OO7)CC[C@]4(C)[C@H]3C[C@H](OC(C)=O)[C@]12C', 'Fulfilled'),
  ('COC(=O)CC[C@@H](C)[C@H]1CC[C@H]2[C@@H]3[C@H](OC(C)=O)C[C@@H]4C[C@@H](OC(=O)CCC(=O)O[C@@H]5O[C@@H]6O[C@@]7(C)CC[C@H]8[C@H](C)CC[C@@H]([C@H]5C)[C@@]68OO7)CC[C@]4(C)[C@H]3C[C@H](OC(C)=O)[C@]12C', 'Not fulfilled');

Here is the next item to consider.
Exam item: # strict comparison: is reported IC50 < 700 nM? input = `COC(=O)CC[C@@H](C)[C@H]1CC[C@H]2[C@@H]3[C@H](OC(C)=O)C[C@@H]4C[C@@H](OC(=O)C[C@H]5O[C@@H]6O[C@@]7(C)CC[C@H]8[C@H](C)CC[C@@H]([C@H]5C)[C@@]68OO7)CC[C@]4(C)[C@H]3C[C@H](OC(C)=O)[C@]12C`
Marked response: Not fulfilled
